Assay: Single-dose two-period crossover bioequivalence study, fed (high-fat breakfast): plasma pharmacokinetics of lisinopril and amlodipine (LC-MS/MS, NCA)
Details: human, plasma, po, Plasma concentration of lisinopril, Mean, mean of 37 subjects, nominal time 7 h, reference (R) tablets
quantity measured: concentration at 7 h (ng/mL)
Please give a number only; it is taken to be in ng/mL.

// lookup concentration at 7 h for NCCCC[C@H](N[C@@H](CCc1ccccc1)C(=O)O)C(=O)N1CCC[C@H]1C(=O)O [lisinopril]
13.9

---

Assay: Single-dose two-period crossover bioequivalence study, fed (high-fat breakfast): plasma pharmacokinetics of lisinopril and amlodipine (LC-MS/MS, NCA)
Conditions: human, plasma, po, Plasma concentration of lisinopril, Min, minimum among subjects, nominal time 12 h, reference (R) tablets
quantity measured: concentration at 12 h (ng/mL)
Use ng/mL as the unit, but write only the number.

Returns the measured concentration at 12 h for the input molecule. Input: NCCCC[C@H](N[C@@H](CCc1ccccc1)C(=O)O)C(=O)N1CCC[C@H]1C(=O)O
3.57
